Test System: FLT3-D835Y (Homo sapiens, UniProt P36888, D835Y)
Construct: purchased Invitrogen PV3967
Sequence (P36888 27-993 D835Y): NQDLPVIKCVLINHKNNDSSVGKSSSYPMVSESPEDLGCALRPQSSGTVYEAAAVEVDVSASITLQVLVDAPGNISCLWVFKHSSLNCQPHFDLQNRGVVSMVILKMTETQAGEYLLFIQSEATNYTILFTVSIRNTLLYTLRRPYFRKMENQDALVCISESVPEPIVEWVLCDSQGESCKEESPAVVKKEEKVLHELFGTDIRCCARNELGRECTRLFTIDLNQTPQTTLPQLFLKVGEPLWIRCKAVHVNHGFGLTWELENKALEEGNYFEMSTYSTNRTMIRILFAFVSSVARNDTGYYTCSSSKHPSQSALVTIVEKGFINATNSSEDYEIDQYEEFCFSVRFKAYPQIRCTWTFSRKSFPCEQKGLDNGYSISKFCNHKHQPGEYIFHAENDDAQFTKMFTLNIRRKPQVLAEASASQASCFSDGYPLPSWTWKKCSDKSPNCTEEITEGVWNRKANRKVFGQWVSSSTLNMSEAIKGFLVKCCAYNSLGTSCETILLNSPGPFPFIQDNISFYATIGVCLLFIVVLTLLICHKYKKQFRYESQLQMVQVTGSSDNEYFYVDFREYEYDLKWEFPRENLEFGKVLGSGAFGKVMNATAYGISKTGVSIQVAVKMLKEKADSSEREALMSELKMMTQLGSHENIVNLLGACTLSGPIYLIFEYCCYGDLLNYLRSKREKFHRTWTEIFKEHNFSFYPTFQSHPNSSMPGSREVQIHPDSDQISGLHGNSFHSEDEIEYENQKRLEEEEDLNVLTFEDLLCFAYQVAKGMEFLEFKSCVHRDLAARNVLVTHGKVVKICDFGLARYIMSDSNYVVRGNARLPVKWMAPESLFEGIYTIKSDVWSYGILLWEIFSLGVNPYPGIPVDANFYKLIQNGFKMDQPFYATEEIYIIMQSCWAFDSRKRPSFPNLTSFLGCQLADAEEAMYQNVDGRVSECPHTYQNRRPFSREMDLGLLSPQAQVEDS
Assay Procedure: FLT3-D835Y biochemical kinase assay (AlphaScreen)
Parameter: IC50

                                    compound  endpoint_value
 0  O=S(=O)(c1cccc(-c2cnc3[nH]cc(-c4ccc5ncsc5c4)c3n2)c1)N1CCCC1 [P-171]  0.0001 to 1 µM
 1  CC(C)S(=O)(=O)Nc1cccc(-c2cnc3[nH]cc(-c4ccc5ncn(C(C)(C)C)c5c4)c3n2)c1 [P-232]  0.0001 to 1 µM
 2  Cc1cnc2[nH]cc(-c3ccc4nc[nH]c4c3)c2c1 [P-021]  0.0001 to 1 µM
 3  CC(C)(C)n1cnc2ccc(-c3c[nH]c4ncc(-c5cnc(N6CCC(F)(F)CC6)nc5)nc34)cc21 [P-357]  0.0001 to 1 µM
 4  CC(C)(C)n1cnc2ccc(-c3c[nH]c4ncc(-c5ccc(N6CCOCC6)nc5)cc34)cc21 [P-322]  0.0001 to 1 µM
 5  CS(=O)(=O)Nc1cccc(-c2cnc3[nH]cc(-c4ccc5c(c4)OC(F)(F)O5)c3n2)c1 [P-064]      1 to 10 µM
 6  N#Cc1cccc(NC(=O)c2cnc3[nH]cc(-c4ccc5ncn(C6CCCNC6)c5c4)c3c2)c1 (centres unmarked) [P-219]  0.0001 to 1 µM
 7  Cc1cc(C#Cc2cnc3[nH]cc(-c4ccc5ncn(C(C)(C)C)c5c4)c3n2)cc(C)n1 [P-282]  0.0001 to 1 µM
 8  COc1cnc2[nH]cc(-c3ccc4c(c3)ncn4C)c2c1 [P-102]      1 to 10 µM
 9  CCn1cnc2ccc(-c3c[nH]c4ncc(OC)cc34)cc21 [P-048]  0.0001 to 1 µM
10  CC(C)(C)n1cnc2ccc(-c3c[nH]c4ncc(-c5ccc(N6CCCCC6)nc5)nc34)cc21 [P-347]  0.0001 to 1 µM
11  COc1cnc2[nH]cc(-c3cc4nc[nH]c4cc3C)c2c1 [P-026]      1 to 10 µM
12  CC(C)S(=O)(=O)Nc1cccc(-c2cnc3[nH]cc(-c4ccc5ncsc5c4)c3n2)c1 [P-184]  0.0001 to 1 µM
13  CCCS(=O)(=O)Nc1cccc(-c2cnc3[nH]cc(-c4ccc5ncn(C)c5c4)c3n2)c1 [P-155]  0.0001 to 1 µM
14  CC(C)(C)n1cnc2ccc(-c3c[nH]c4ncc(-c5ccc(N6CCC(F)(F)CC6)nc5)nc34)cc21 [P-356]  0.0001 to 1 µM
15  Cn1cnc2ccc(-c3c[nH]c4ncc(-c5ccc(NS(C)(=O)=O)cc5)nc34)cc21 [P-063]  0.0001 to 1 µM
16  CN(c1cccc(-c2cnc3[nH]cc(-c4ccc5ncn(C)c5c4)c3n2)c1)S(C)(=O)=O [P-150]  0.0001 to 1 µM
